For each of the compounds below, state its pIC50.
- EXPERIMENTAL TARGET: BCAT2 (Homo sapiens)
- Sequence (O15382 28-392): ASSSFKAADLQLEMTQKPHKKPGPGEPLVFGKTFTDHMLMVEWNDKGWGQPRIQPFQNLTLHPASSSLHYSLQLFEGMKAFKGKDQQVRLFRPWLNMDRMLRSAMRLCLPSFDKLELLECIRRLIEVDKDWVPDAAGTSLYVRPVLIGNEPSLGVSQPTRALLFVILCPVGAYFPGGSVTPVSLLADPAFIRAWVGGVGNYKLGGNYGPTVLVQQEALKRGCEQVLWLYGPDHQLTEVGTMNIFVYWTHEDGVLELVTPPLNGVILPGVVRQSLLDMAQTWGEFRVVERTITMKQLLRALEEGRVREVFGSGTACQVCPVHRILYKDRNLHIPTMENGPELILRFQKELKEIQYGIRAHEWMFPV
- PROCEDURE SUMMARY: BCAT2 in vitro cell inhibition using engineered A549 cells (KMV cell assay, 13C6-KMV by LC-MS/MS)
- Format: cell-based
- Parameters: The result was an engineered A549 cell line that expressed endogenous BCAT2; endogenous in cells; host or cells: A549 cells with MUT and BCAT1 knocked out by CRISPR/CAS9
- STATED CONDITIONS: average where tested multiple times
pIC50: −log10 of the molar value.

Below are worked cases with known answers.
COMPOUND | TEST RESULT
O=C(N[C@H]1CCC[C@@H](n2c(-c3ncccc3F)nc3cnc(-n4nccn4)cc32)C1)c1ncc(C(F)F)s1 [Example 24] | ≥ 7.00
O=C(N[C@H]1CCC[C@@H](n2c(-c3ccccn3)nc3cnc(-n4nccn4)cc32)C1)c1ncc(Br)s1 [Example 19] | ≥ 7.00

INPUT: For CO[C@@H]1C[C@@H](NC(=O)c2ncc(Cl)s2)C[C@@H](n2c(-c3ncccc3F)nc3cnc(-c4nc[nH]n4)cc32)C1 (stereo in doubt) [Example 444] , what is its reported pIC50?
OUTPUT: ≥ 7.00

Measured values drawn from patent US20260159512A1 for this set.
